System: LOX IMVI
Assay: Anticancer activity against human LOX IMVI cells assessed as cell growth inhibition measured after 48 hrs by SRB assay
Format: functional
test_readout: GI50

**Q:** Given CCN(CC)C(=O)C[C@H]1C(=O)Nc2cc(NC(=O)c3cc(OC)c(OC)c(OC)c3Br)c(Oc3cc(C)cc(C)c3)cc2C(=O)N1C , state its recorded GI50.
**A:** < 0.005 µM

**Q:** Sample CCN(CC)C(=O)C[C@H]1C(=O)Nc2cc(NC(=O)c3cc(OC)c(OC)c(OC)c3Cl)c(Oc3cc(C)cc(C)c3)cc2C(=O)N1C — what was its GI50?
**A:** < 0.005 µM

**Q:** What measured GI50 goes with COC(=O)C[C@@H]1NC(=O)c2cc(-c3cc(C)cc(C)c3)c(NC(=O)c3cc(OC)c(OC)c(OC)c3)cc2NC1=O ?
**A:** > 50 µM

**Q:** Look up GI50 for this compound: COC(=O)C[C@@H]1NC(=O)c2cc(Oc3cc(C)cc(C)c3)c(NCc3cc(OC)c(OC)c(OC)c3)cc2NC1=O
**A:** > 50 µM

**Q:** Requested read-out: GI50. Entry: COC(=O)C[C@@H]1NC(=O)c2cc(Oc3cc(C)cc(C)c3)c(NC(=O)c3ccc(F)cc3)cc2NC1=O
**A:** > 50 µM

**Q:** Given the entry COC(=O)C[C@@H]1NC(=O)c2cc(OCc3ccccc3)c(NC(=O)c3cc(OC)c(OC)c(OC)c3)cc2NC1=O , report its measured GI50.
**A:** > 50 µM

**Q:** Recorded GI50 for CCN(CC)C(=O)C[C@@H]1NC(=O)c2cc(Oc3cc(C)cc(C)c3)c(N(C)C(=O)c3cc(OC)c(OC)c(OC)c3)cc2NC1=O , please?
**A:** > 50 µM

**Q:** Quick one: GI50 for COC(=O)C[C@@H]1NC(=O)c2cc(Oc3cc(C)cc(C)c3)c(NC(=O)c3ccc(OC)c(OC)c3OC)cc2NC1=O ?
**A:** > 50 µM
